// provenance: the supplement of paper PMC10567573

# protein stability index values compiled below
B1: ZMYND11 (parent)
chain: YCSIKCQQEHWHAEHKRTCRRKR

# Variants of: B1
# TEST: protein stability index of a GFP-peptide fusion (GPS, HEK-293T) (PSI 1-6); higher = more stable;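 also: lentivirally expressed fusions sorted by FACS into six bins by GFP to DsRed ratio, PSI derived from sequencing read proportions per bin multiplied by bin number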
# TEST SETTINGS: c terminus: native
Give a plain numeric answer without units written out.

R20N = 2.02
E14I = 1.95

Attention now turns to another entry.
For E9T the variant record lists protein stability index as 1.97
